This collection of values is drawn from patent US12559497B2.

- measurement protocol: In vivo pharmacokinetics after a single dose, dog
- measurement parameters: male, plasma; Beagle dog, 1 mg/kg IV single dose
property label: half-life (h)
The reply should be a number in h, with the unit left off.

What value of half-life has been recorded for this entry: CC(=O)N1CCn2c(C3CCOCC3)nc(-c3cccc4cc(-c5cnc(C)s5)ncc34)c2C1
9.74

----------
- Test system: DOHH2 cells
- measurement protocol: DOHH2 Proliferation Assay
- Format: cell-based
- measurement parameters: Homo sapiens, DOHH-2, 168 h; CellTiter-Glo viability on day 7
property label: IC50 (nM)
Could you give me the number in nM? Just the number is fine.

What measured IC50 goes with CNC(=O)c1ccc(-c2cc3cccc(-c4nc(C56CCC(CC5)OC6)n5c4CN(C(C)=O)CC5)c3cn2)cn1 ?
676

Look at this molecule and give its reported IC50. CC(=O)N1CCn2c(C3CCOCC3)nc(-c3cccc4cc(-c5cnc(C)s5)ncc34)c2C1
261

Query (molecule): CNC(=O)c1ccc(-c2cc3ccc(F)c(-c4nc(C5CCOCC5)n5c4CN(C(C)=O)CC5)c3cn2)cn1 ; field requested: IC50
216

Query (molecule): CC(=O)N1CCn2c(C3CCOCC3)nc(-c3c(F)ccc4cc(-c5cnc(C)s5)ncc34)c2C1 ; field requested: IC50
541

May I ask what IC50 has been recorded for CNC(=O)c1ccc(-c2cc3cccc(-c4nc(C5CC5)n5c4CN(C(C)=O)CC5)c3cn2)cn1 ?
376

Any idea what IC50 was measured for CNC(=O)c1ccc(-c2cc3cccc(-c4nc(C5CCOCC5)n5c4CN(C(C)=O)CC5)c3cn2)cn1 ?
232
